Test: yeast display, Sf9 membrane polyspecificity reagent, FACS + sequencing; frameworks hold sequencing errors
property_name: polyreactivity (PSR sort gate)

{"columns": ["residues", "val"],
 "data": [
  ["QVQLVESGGGLVQAGGSLRLSCAASGSTFGANAMGWYRQAPGKEREFVAAISRSGVRTYYADSVKGRFTISRDNAKNTVYLQMNSLKPEDTAVYYCAADGYWWTYKGQYDYWGQGTQVTVSS", "low polyreactivity"],
  ["QVQLVESGGRLVQAGGSLRLSCAASGRIFLNYDMGWYRQAHGKERELVAAITWSTGSTYADSVKGRFTISRDNAKNNVYLKMNSLKPEVTAVYYCAAPWGQTDDRHKGGDYWGQGSQVTVSS", "low polyreactivity"],
  ["QVQLVESGGGLVQAGGSLRLSCAASGIIFYKFAMGWYRQAPGKERELVASISRRGGNTYYADSVKGRCTISRDNAKNTVYLQMNSLKPEDTAVYDSAAPKRSNEPYDYWGQGTQVTVSS", "high polyreactivity"],
  ["QVQLVESGGGLVQAGGSLRLSCAASGITFVRNTMGWYRQAPGKERELVAAISKSGDNTYYADSVKGRFTISRDNAKNTVYLQMNSLKPEDTAVYYCNKAYRKFYYGYDYWGQGTQVTVSS", "high polyreactivity"]
]}

List reported polyreactivity (PSR sort gate) for each of these sequences:
1. QVQLVESGGGLVQAGGSLRLSCAASGSTFWANAMGWYRQAPGKERELVAAITTSGASTYYADSVKGRFTISRDNAKNTVYLQMNSLKPEDTAVYYCAADYDSYYWYNYWGQGTQVTVSS
2. QVQLVEAGGGLVQAGGSLRLSCAASGITCRNDAIGWYRQAAGKERELVADITTGGSTYADSVKGRFTISRDNAKNTVYLQLISLKPEDTAVYYFAADRDFRTPRLYYWGQGTQVTVSS
3. QVQLVESGGGLVQAGGSLRLSCAASGFTFSFYAMGWYRQAPGKERELVAGISKRGGSTYYADSVKGRFTISRDNAKKTVFLQMNSLKPEDTAVYYCARSYYTNGNALKRDYWGQGTQVTVSS
4. QVQHVESGGGLVQAGGSLRLSCAASGLIYSYYTMGWYRQAPGKERDLVAAITGSGGTTYYADSVKGRFTISRDNAKNTVYIQMNSLKPEDTAVYYCATPPPEVWQRWYREYDYWGQGTQVTVSS
5. QVQLVESGGGLVQAGGSLRLSCAASGRIFRGNVMGWYRQAPGKERELVAAINSGASSNYADSVKGRFTISRDNAKNTVYLQMNSLKPEDTAVYYCAKRGPRSYFQPCYDYWGQGTQVTVSS
6. QDQLVDSGGGLVQAGGSLRLSCAASGRTFTVYAMGWYRQAPGKERELVAAISGSSGSTDYADSVKGRFTISRDNAKNTVYLQMNSLKPEDTAVYYCAKASSATRYVQLRQDYDYWGQGTQVTVSS
7. QVQLVESGGGLVQAGGSLRLSCAASGSNISQNAMGWYRQAPGKERELVASITYSGGSTYYADSVKGRFTISRDNAKNTVYLQMNSLKPEVTAVYYCAADVRYSSRFYYWGQGTQVTVSS

1: low polyreactivity; 2: low polyreactivity; 3: high polyreactivity; 4: low polyreactivity; 5: high polyreactivity; 6: low polyreactivity; 7: high polyreactivity

Noted for "QVHLVESGGGLVQAGGSLRLSCDATGFTFQEYAMGWYRQAPGKERELVAAISTSGDSTYYADSVKGRFTISRDNAKNTVYLQMKSLKPEDNAVYYCATAYEDLDAGVLYDYWGQGTQVTVSS" : its polyreactivity (PSR sort gate) reads low polyreactivity
